Entries and their Residual activity of chymotrypsin
STUDY TARGET: α-chymotrypsin (Bos taurus, UniProt P00766)
ASSAY TEXT: Chymotrypsin inhibitory activity of peptides (AAPFpNA hydrolysis; IC50, Ki, residual activity)
Type: biochemical
APPLIED CONDITIONS: peptide 300 μM
Bridge positions count the residues as written; N and C are the ends. Peptide text beside a SMILES is read from it.
Please state the figure in %; there is no need to write the unit.

Please review the entries below; each comes with its answer.
Query string: Quick one: Residual activity of chymotrypsin for CC[C@H](C)[C@@H]1NC(=O)[C@@H]2CCCN2C(=O)[C@@H]2CCCN2C(=O)[C@H]([C@@H](C)CC)NC(=O)[C@H](CO)NC(=O)[C@H](Cc2ccccc2)NC(=O)[C@H]([C@@H](C)O)NC(=O)[C@H](C)NC(=O)[C@H]([C@@H](C)O)NC(=O)CNC(=O)[C@@H](N)CSSC[C@@H](C(=O)N[C@@H](CC(N)=O)C(=O)O)NC1=O [CH27] (H-CGTATFSIPPICN-OH; disulfide 1-12; N-terminus and C-terminus assumed) ?
Result string: 1.2

Query string: Quick one: Residual activity of chymotrypsin for CC[C@H](C)[C@@H]1NC(=O)[C@H](CO)NC(=O)[C@H](Cc2ccccc2)NC(=O)[C@H]([C@@H](C)O)NC(=O)CNC(=O)[C@H](Cc2ccccc2)NC(=O)CNC(=O)[C@@H](N)CSSC[C@@H](C(=O)N[C@@H](Cc2ccc(O)cc2)C(=O)NCC(=O)O)NC(=O)[C@H](CCC(N)=O)NC(=O)[C@@H]2CCCN2C(=O)[C@@H]2CCCN2C1=O [CH7] (H-CGFGTFSIPPQCYG-OH; disulfide 1-12; N-terminus and C-terminus assumed) ?
Result string: 4.1

Query string: Quick one: Residual activity of chymotrypsin for CC[C@H](C)[C@@H]1NC(=O)[C@H](CO)NC(=O)[C@H](Cc2ccccc2)NC(=O)[C@H]([C@@H](C)O)NC(=O)[C@@H](NC(=O)[C@@H](N)CC(C)C)CSSC[C@@H](C(=O)N[C@@H](Cc2ccc(O)cc2)C(=O)NCC(=O)O)NC(=O)[C@H](CCC(N)=O)NC(=O)[C@@H]2CCCN2C(=O)[C@@H]2CCCN2C1=O [CH1] (H-LCTFSIPPQCYG-OH; disulfide 2-10; N-terminus and C-terminus assumed) ?
Result string: 0.3

Query string: Quick one: Residual activity of chymotrypsin for CC[C@H](C)[C@@H]1NC(=O)[C@H](CO)NC(=O)[C@H](Cc2ccc(O)cc2)NC(=O)[C@H]([C@@H](C)O)NC(=O)[C@H](C)NC(=O)[C@H](C)NC(=O)CNC(=O)[C@@H](N)CSSC[C@@H](C(=O)N[C@@H](Cc2ccccc2)C(=O)O)NC(=O)[C@H](CCCCN)NC(=O)[C@H](C)NC(=O)[C@@H]2CCCN2C1=O [CH31] (H-CGAATYSIPAKCF-OH; disulfide 1-12; N-terminus and C-terminus assumed) ?
Result string: 1.0

Turning to the following compound.
Query string: Quick one: Residual activity of chymotrypsin for CC[C@H](C)[C@@H]1NC(=O)[C@H](CO)NC(=O)[C@H](Cc2ccc(O)cc2)NC(=O)[C@H]([C@@H](C)O)NC(=O)[C@H](C)NC(=O)[C@H](C)NC(=O)CNC(=O)CNC(=O)[C@@H](N)CSSC[C@@H](C(=O)N[C@@H](Cc2ccccc2)C(=O)O)NC(=O)[C@H](CCCCN)NC(=O)[C@H](C)NC(=O)[C@@H]2CCCN2C1=O [CH32] (H-CGGAATYSIPAKCF-OH; disulfide 1-13; N-terminus and C-terminus assumed) ?
Result string: 0.7

----------
STUDY TARGET: bovine trypsin (Bos taurus, UniProt P00760)
Sequence (P00760 24-246): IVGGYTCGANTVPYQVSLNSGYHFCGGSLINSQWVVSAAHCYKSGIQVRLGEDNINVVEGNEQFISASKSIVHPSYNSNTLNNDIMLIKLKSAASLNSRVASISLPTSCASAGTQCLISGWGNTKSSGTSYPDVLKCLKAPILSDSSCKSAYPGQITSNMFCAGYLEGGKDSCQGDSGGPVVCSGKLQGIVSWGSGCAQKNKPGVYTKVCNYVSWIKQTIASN
ASSAY TEXT: Trypsin inhibitory activity of peptides (BApNA hydrolysis, OD405; IC50, Ki, residual activity)
Assay type: biochemical
APPLIED CONDITIONS: Ki=IC50/(1+S/Km), Km 0.33 mM; read-out: Ki
Bridge positions count the residues as written; N and C are the ends. Square brackets hold non-standard residues; d marks the D form. Peptide text beside a SMILES is read from it. Nle = CCCC[C@H](N)C(=O)O; Abu = CC[C@H](N)C(=O)O
MEASURED PROPERTY: Ki (µM)
Please state the figure in µM; there is no need to write the unit.

Please review the entries below; each comes with its answer.
Query string: Quick one: Ki for CCCC[C@@H]1NC(=O)[C@H](CCCNC(=N)N)NC(=O)CNC(=O)[C@@H](N)CSSC[C@@H](C(=O)N[C@@H](Cc2ccccc2)C(=O)O)NC(=O)[C@H]([C@@H](C)CC)NC(=O)[C@@H]2CCCN2C(=O)[C@@H]2CCCN2C(=O)[C@H]([C@@H](C)CC)NC(=O)[C@H](CO)NC(=O)[C@H](CCCCN)NC(=O)[C@H]([C@@H](C)O)NC1=O [BT50] (H-CGR[Nle]TKSIPPICF-OH; disulfide 1-12; C-terminus assumed) ?
Result string: 0.01

Query string: Quick one: Ki for CC[C@H](C)[C@@H]1NC(=O)[C@@H]2CCCN2C(=O)[C@@H]2CCCN2C(=O)[C@H]([C@@H](C)CC)NC(=O)[C@H](CO)NC(=O)[C@H](CCCCN)NC(=O)[C@H]([C@@H](C)O)NC(=O)CNC(=O)[C@H](CCCNC(=N)N)NC(=O)CNC(=O)[C@@H](N)CSSC[C@@H](C(=O)N[C@@H](Cc2ccccc2)C(=O)O)NC1=O [BT60] (H-CGRGTKSIPPICF-OH; disulfide 1-12) ?
Result string: 0.09

Query string: Quick one: Ki for CC[C@@H]1NC(=O)[C@@H](N)CSSC[C@@H](C(=O)N[C@@H](Cc2ccccc2)C(=O)O)NC(=O)[C@H]([C@@H](C)CC)NC(=O)[C@@H]2CCCN2C(=O)[C@@H]2CCCN2C(=O)[C@H]([C@@H](C)CC)NC(=O)[C@H](CO)NC(=O)[C@H](CCCCN)NC(=O)[C@H]([C@@H](C)O)NC(=O)[C@H](C)NC(=O)[C@H](CCCNC(=N)N)NC1=O [BT74] (H-C[Abu]RATKSIPPICF-OH; disulfide 1-12; N-terminus and C-terminus assumed) ?
Result string: 0.02

Query string: Quick one: Ki for CC[C@H](C)[C@@H]1NC(=O)[C@@H]2CCCN2C(=O)[C@@H]2CCCN2C(=O)[C@H]([C@@H](C)CC)NC(=O)[C@H](CO)NC(=O)[C@H](CCCCN)NC(=O)[C@H]([C@@H](C)O)NC(=O)[C@H](C)NC(=O)[C@H](CCCNC(=N)N)NC(=O)[C@H](CC(C)C)NC(=O)[C@@H](N)CSSC[C@@H](C(=O)N[C@@H](Cc2ccccc2)C(=O)O)NC1=O [BT72] (H-CLRATKSIPPICF-OH; disulfide 1-12; N-terminus and C-terminus assumed) ?
Result string: 0.03

More entries:
Query string: Quick one: Ki for CC[C@H](C)[C@@H]1NC(=O)[C@@H]2CCCN2C(=O)[C@@H]2CCCN2C(=O)[C@H]([C@@H](C)CC)NC(=O)[C@H](CO)NC(=O)[C@H](CCCCN)NC(=O)[C@H]([C@@H](C)O)NC(=O)[C@H](C)NC(=O)[C@H](CCCNC(=N)N)NC(=O)[C@H](CCCNC(=N)N)NC(=O)[C@@H](N)CSSC[C@@H](C(=O)N[C@@H](Cc2ccccc2)C(=O)O)NC1=O [BT76] (H-CRRATKSIPPICF-OH; disulfide 1-12; N-terminus and C-terminus assumed) ?
Result string: 0.01

----------
STUDY TARGET: bovine trypsin (Bos taurus)
Sequence (P00760 24-246): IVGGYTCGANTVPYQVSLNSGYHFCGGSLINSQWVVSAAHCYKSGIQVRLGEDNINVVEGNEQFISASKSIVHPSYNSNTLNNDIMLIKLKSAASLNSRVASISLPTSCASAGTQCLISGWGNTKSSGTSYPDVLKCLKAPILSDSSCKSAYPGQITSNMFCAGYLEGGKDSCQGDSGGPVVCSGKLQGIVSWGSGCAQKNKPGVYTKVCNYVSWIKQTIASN
ASSAY TEXT: Trypsin inhibitory activity of peptides (BApNA hydrolysis, OD405; IC50, Ki, residual activity)
Assay type: biochemical
APPLIED CONDITIONS: peptide 0.488 μM
Bridge positions count the residues as written; N and C are the ends. Peptide text beside a SMILES is read from it.
Entries and their Residual trypsin activity
Please state the figure in %; there is no need to write the unit.

Query string: Quick one: Residual trypsin activity for CC[C@H](C)[C@@H]1NC(=O)[C@H](C)NC(=O)[C@@H]2CCCN2C(=O)[C@H]([C@@H](C)CC)NC(=O)[C@H](CO)NC(=O)[C@H](CCCCN)NC(=O)[C@H]([C@@H](C)O)NC(=O)[C@H](C)NC(=O)[C@H](CCCNC(=N)N)NC(=O)CNC(=O)[C@@H](N)CSSC[C@@H](C(=O)N[C@@H](Cc2ccccc2)C(=O)O)NC1=O [BT10] (H-CGRATKSIPAICF-OH; disulfide 1-12) ?
Result string: 1.0

Turning to the following molecule.
Query string: Quick one: Residual trypsin activity for CC[C@H](C)[C@@H]1NC(=O)[C@@H]2CCCN2C(=O)[C@@H]2CCCN2C(=O)[C@H]([C@@H](C)CC)NC(=O)[C@H](CO)NC(=O)[C@H](CCCCN)NC(=O)[C@H]([C@@H](C)O)NC(=O)[C@H](C)NC(=O)[C@H](CCCNC(=N)N)NC(=O)CNC(=O)[C@@H](N)CSSC[C@@H](C(=O)N[C@@H](Cc2ccccc2)C(=O)O)NC1=O [BT9] (H-CGRATKSIPPICF-OH; disulfide 1-12; C-terminus assumed) ?
Result string: −0.2

Data provenance: patent US20230416329A1
